This listing pairs compounds with measured pIC50.
Molecular target: 5α-reductase (Homo sapiens)
Construct: Frozen human prostates were thawed on ice and minced with scissors into small pieces; from tissue; host or cells: human prostate (frozen), washed 140,000×g membrane pellet
Sequence (P31213 1-254): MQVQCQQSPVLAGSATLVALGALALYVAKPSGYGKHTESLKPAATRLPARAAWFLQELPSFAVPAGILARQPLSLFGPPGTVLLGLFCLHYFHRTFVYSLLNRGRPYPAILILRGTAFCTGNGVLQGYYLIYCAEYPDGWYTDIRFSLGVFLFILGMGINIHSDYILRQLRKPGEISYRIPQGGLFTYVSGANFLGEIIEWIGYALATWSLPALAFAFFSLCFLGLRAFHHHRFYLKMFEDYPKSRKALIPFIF
Test: inhibitory activity on 5α-reductase from human prostates (conversion of 14C-testosterone to DHT)
Format: biochemical
Conditions: human prostatic 5α-reductase, pH 5.0, 1 μM 14C-testosterone, 1 mM NADPH, 30 min at 37° C.; Table 1
pIC50: −log10 of the molar value.
Measurement kind: pIC50

> print(dat)
                                 mol.smiles                  test.target  reported.value
1  Cn1c(C(=O)O)ccc1C(=O)c1ccc(-c2ccccc2)cc1  5α-reductase (Homo sapiens)            6.77
2  Cn1c(CC(=O)O)ccc1C(=O)c1ccc(OCc2ccccc2)cc1  5α-reductase (Homo sapiens)            7.62
3  Cn1c(CC(=O)O)ccc1C(=O)c1ccc(/C=C/c2ccccc2)cc1  5α-reductase (Homo sapiens)            7.25
4  Cc1cc(OCc2ccccc2)ccc1C(=O)c1ccc(CC(=O)O)n1C  5α-reductase (Homo sapiens)            6.77
5  Cn1c(CC(=O)O)ccc1C(=O)c1ccc2c(c1)C(=O)c1ccccc1-2  5α-reductase (Homo sapiens)            6.89

Recorded values, source patent US5859042A.
